- testedOn: Arginase-2, mitochondrial (Homo sapiens)
- Sequence (P78540 whole entry): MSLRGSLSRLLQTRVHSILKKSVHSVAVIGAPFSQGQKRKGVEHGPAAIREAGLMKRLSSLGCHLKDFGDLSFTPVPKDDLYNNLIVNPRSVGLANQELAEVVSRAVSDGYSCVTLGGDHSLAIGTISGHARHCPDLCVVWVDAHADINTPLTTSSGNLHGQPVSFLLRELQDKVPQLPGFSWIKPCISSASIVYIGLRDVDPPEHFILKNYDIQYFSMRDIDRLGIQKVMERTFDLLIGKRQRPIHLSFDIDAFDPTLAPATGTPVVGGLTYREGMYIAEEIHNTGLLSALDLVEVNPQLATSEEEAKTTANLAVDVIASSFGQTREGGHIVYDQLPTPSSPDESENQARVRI
- testDetails: Inhibition of human recombinant ARG2
resultType: pIC50
Note on pIC50: it is the negative log10 of concentration, concentration in mol/L.

Given N[C@@H](CC/C=C/B(O)O)C(=O)O , respond with its pIC50.
4.82

---

- testedOn: Arginase-1 (Homo sapiens, UniProt P05089)
- Sequence (P05089 whole entry): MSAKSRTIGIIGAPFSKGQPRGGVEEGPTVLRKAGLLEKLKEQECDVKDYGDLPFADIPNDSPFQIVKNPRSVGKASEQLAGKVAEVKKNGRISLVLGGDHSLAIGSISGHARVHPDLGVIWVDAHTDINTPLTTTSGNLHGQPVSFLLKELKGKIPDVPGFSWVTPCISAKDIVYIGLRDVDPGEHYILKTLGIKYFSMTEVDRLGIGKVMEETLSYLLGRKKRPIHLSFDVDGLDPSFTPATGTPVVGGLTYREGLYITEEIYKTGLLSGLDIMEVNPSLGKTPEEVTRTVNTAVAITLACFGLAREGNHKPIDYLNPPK
- testDetails: Binding affinity to human recombinant ARG1 assessed as inhibition constant
resultType: pKi
Note on pKi: it is the negative log10 of concentration, concentration in mol/L.

Given N[C@@H](CCCCC=O)C(=O)O , respond with its pKi.
4.22

Hello, the source for this data is ChEMBL document CHEMBL6087424, in case you need it.
